Values from paper PMC9950073

# measurement-description: Rat pharmacokinetics
# test-context: in vivo, 2 mg/Kg, IV, dose not given
measure-name: Cmax (ng/mL)

>  <molecule>
Cc1c(-c2cc3ccccc3n2Cc2ccc(F)cc2)nc2cc(C(=O)N3CCC[C@@H](N)C3)ccn12 [JBI-589]

>  <reading-unit>
ng/mL

>  <observed-measurement>
419

$$$$

----------
# experimental-target: CYP2C19 (Homo sapiens, UniProt P33261)
# Construct: from tissue; host or cells: human liver microsomes
# Sequence (P33261 whole entry): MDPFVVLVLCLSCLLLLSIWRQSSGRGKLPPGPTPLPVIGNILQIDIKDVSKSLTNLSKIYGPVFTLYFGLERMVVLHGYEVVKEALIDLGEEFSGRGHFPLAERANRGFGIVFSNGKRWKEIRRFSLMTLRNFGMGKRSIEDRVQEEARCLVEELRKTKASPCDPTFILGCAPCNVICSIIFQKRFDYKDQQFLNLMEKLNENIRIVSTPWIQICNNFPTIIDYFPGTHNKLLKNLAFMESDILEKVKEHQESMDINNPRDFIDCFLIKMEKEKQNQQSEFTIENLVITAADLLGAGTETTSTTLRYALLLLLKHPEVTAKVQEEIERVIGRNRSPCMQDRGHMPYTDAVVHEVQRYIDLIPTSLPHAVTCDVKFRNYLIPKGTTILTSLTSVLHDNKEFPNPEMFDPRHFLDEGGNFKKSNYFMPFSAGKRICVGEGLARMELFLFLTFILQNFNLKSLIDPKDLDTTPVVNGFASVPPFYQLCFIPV
# measurement-description: CYP inhibition in human liver microsome, CYP2C19
# Assay type: in vitro ADME
# test-context: human liver microsomes; 10 µM, human liver microsome; read-out: CYP2C19 inhibition (% inh @10 µM)

>  <molecule>
Cc1c(-c2cc3ccccc3n2Cc2ccc(F)cc2)nc2cc(C(=O)N3CCC[C@@H](N)C3)ccn12 [JBI-589]

>  <inhibition at 10 min, 10 µM>
< 50%

$$$$
